TARGET OR SYSTEM: human α1G T-type channels (Homo sapiens)
Construct: expressed in transfected cells; host or cells: HEK 293
ASSAY PROCEDURE: T-type calcium channel block, whole cell patch clamp in HEK cells (α1G)
Format: cell-based
TEST PARAMETERS: HEK cells, patch clamp, mainly non-inactivated protocol; values above 10 μM shown as 10 μM, below 0.30 μM shown as 0.30 μM; read-out: T-type Calcium Channel Block α1G IC50
Can you tell me pIC50 for the items I'm about to list?
Bear in mind: pIC50 is minus log10 of a mol/L concentration; give just that figure.

Prompt: State the recorded pIC50 for this entry: CN(CCN1CCC(CNC(=O)c2cc(F)cc(C(F)(F)F)c2)CC1)C(=O)CCC(F)(F)F [Compound 517]
Completion: 5.96

Prompt: How about CC(C)(C)OC(=O)NCCN1CCC(CNC(=O)c2cccc(OC(F)(F)F)c2)CC1 [Compound 44] ?
Completion: 6.21

Prompt: Queued: CC(C)(C)C(C)(O)C(=O)N1CCC(CNC(=O)c2cc(C(F)(F)F)cc(C(F)(F)F)c2)CC1 (centres unmarked) [Compound 89]
Completion: 5.39

Prompt: Would you kindly repeat that for O=C(NCC1CCN(CCNS(=O)(=O)C2CC2)CC1)c1cccc(OC(F)(F)F)c1 [Compound 234] ?
Completion: 5.84

Prompt: Lookup O=C(NCC1CCN(C(=O)CNC2CCCCC2O)CC1)c1cc(F)cc(C(F)(F)F)c1 (centres unmarked) [Compound 275]
Completion: 5.70

---

TARGET OR SYSTEM: human α1H T-type channels (Homo sapiens)
Construct: expressed in transfected cells; host or cells: HEK 293
Sequence (O95180 whole entry): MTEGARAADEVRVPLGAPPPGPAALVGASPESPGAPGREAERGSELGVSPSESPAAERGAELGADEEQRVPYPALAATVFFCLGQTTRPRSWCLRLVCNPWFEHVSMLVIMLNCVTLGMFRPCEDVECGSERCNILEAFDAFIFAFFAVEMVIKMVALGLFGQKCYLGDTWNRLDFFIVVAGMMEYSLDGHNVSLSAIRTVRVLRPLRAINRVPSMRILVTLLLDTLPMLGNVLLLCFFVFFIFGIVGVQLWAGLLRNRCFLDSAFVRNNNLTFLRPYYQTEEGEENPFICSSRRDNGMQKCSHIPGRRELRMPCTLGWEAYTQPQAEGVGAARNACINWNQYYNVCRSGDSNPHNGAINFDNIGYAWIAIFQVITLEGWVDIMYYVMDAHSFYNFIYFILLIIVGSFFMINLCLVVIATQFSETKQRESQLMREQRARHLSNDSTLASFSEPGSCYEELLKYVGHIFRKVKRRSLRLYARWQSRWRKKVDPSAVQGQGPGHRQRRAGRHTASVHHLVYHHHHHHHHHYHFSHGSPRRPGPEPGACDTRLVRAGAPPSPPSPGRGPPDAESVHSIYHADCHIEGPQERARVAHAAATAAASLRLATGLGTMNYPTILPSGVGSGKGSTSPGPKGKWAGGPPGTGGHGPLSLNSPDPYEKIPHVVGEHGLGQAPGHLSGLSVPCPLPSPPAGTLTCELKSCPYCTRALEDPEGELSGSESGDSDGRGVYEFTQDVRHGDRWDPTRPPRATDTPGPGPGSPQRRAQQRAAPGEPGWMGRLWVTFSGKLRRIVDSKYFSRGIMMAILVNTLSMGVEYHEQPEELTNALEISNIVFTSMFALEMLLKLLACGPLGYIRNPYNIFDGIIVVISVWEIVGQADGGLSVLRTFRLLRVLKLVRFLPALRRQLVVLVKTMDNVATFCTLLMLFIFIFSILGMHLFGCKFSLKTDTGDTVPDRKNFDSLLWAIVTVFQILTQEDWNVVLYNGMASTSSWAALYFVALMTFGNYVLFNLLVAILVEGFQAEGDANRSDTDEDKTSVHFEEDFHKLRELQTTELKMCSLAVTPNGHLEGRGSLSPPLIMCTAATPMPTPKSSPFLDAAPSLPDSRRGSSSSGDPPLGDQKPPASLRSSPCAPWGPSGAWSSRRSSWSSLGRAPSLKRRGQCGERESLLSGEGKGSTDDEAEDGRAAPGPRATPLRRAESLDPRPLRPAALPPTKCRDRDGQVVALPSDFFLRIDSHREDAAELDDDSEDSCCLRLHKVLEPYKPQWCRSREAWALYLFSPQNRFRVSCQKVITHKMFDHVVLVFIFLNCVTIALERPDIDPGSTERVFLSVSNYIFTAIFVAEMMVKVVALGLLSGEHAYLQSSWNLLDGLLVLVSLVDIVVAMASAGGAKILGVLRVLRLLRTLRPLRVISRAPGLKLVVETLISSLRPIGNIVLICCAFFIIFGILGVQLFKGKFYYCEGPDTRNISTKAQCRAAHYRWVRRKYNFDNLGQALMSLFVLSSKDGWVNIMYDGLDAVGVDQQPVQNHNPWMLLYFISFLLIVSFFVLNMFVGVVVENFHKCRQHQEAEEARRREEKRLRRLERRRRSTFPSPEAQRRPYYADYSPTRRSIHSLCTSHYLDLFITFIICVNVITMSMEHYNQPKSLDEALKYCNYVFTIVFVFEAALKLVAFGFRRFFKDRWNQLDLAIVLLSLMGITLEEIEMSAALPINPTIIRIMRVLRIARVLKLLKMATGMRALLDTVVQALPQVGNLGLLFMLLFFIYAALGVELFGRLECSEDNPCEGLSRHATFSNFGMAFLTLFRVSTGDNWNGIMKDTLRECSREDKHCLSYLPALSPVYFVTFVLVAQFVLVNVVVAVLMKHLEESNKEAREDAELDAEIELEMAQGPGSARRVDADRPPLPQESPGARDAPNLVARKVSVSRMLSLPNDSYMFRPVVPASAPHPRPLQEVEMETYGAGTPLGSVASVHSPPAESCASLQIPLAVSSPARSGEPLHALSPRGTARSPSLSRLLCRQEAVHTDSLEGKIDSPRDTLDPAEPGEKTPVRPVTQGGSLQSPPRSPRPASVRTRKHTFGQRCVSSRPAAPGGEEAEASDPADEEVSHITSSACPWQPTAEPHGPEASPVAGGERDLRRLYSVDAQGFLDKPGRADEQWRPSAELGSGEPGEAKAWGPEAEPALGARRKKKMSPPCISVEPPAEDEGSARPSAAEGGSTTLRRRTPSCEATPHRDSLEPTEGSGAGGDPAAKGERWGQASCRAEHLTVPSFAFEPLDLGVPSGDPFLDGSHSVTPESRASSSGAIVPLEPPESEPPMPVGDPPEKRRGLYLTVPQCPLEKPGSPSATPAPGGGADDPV
ASSAY PROCEDURE: T-type calcium channel block, whole cell patch clamp in HEK cells (α1H)
Type: cell-based
Description: T-type calcium channel blocking activity was assayed in human embryonic kidney cells, HEK 293, stably transfected with the T-type calcium channel subunits. […] Standard patch-clamp techniques were employed to identify blockers of T-type currents. […] Data were analyzed using Clampfit (Axon Instruments) and SigmaPlot 4.0 (Jandel Scientific). […]
REPORTED ENDPOINT: IC50 (nM)
Write it as a number; the unit nM goes unstated.

Prompt: Quick one: IC50 of CC.CC(F)CNC(=O)CN1CCC(CNC(=O)c2cc(F)cc(Cl)c2)CC1 (stereo not shown) ?
Completion: 1730

---

TARGET OR SYSTEM: human α1G T-type channels (Homo sapiens, UniProt O43497)
Construct: expressed in transfected cells; host or cells: HEK 293
ASSAY PROCEDURE: T-type calcium channel block, whole cell patch clamp in HEK cells (α1G)
Format: cell-based
TEST PARAMETERS: HEK cells, patch clamp, mainly non-inactivated protocol; values above 10 μM shown as 10 μM, below 0.30 μM shown as 0.30 μM; read-out: T-type Calcium Channel Block α1G IC50
REPORTED ENDPOINT: pIC50
Recall that pIC50 is obtained by taking minus log10 of the concentration measured in molar.

Prompt: Value lookup for pIC50; key = O=C(NCC1CCN(CCN2C(=O)NC3(CCCCC3)C2=O)CC1)c1cc(F)cc(C(F)(F)F)c1 [Compound 568]
Completion: 5.87

Prompt: Can you handle O=C(NCC1CCN(C(=O)CN2CCCC(F)(F)C2)CC1)c1cc(C(F)(F)F)cc(C(F)(F)F)c1 [Compound 256] next?
Completion: 5.25

Prompt: Entry CC(C)(F)CNC(=O)CN1CCC(CNC(=O)c2cc(F)cc(C(F)(F)F)c2)CC1 [Compound 556] please
Completion: 5.86

Prompt: One more compound: COc1cc(Cl)cc(C(=O)NCC2CCN(CCNS(=O)(=O)C(C)C)CC2)c1 [Compound 320]
Completion: 6.12

Prompt: # repeat for COC(=O)NC(CN1CCC(CC(=O)NCc2cc(Cl)cc(Cl)c2)CC1)C(C)(C)C (centres unmarked) [Compound 223]
Completion: 5.09

Prompt: How about O=C(NCC1CCN(CC(=O)N2CCC(F)CC2)CC1)c1cc(F)cc(C(F)(F)F)c1 [Compound 356] ?
Completion: 6.26

---

TARGET OR SYSTEM: hERG K+ channel (Homo sapiens, UniProt Q12809)
Sequence (Q12809 whole entry): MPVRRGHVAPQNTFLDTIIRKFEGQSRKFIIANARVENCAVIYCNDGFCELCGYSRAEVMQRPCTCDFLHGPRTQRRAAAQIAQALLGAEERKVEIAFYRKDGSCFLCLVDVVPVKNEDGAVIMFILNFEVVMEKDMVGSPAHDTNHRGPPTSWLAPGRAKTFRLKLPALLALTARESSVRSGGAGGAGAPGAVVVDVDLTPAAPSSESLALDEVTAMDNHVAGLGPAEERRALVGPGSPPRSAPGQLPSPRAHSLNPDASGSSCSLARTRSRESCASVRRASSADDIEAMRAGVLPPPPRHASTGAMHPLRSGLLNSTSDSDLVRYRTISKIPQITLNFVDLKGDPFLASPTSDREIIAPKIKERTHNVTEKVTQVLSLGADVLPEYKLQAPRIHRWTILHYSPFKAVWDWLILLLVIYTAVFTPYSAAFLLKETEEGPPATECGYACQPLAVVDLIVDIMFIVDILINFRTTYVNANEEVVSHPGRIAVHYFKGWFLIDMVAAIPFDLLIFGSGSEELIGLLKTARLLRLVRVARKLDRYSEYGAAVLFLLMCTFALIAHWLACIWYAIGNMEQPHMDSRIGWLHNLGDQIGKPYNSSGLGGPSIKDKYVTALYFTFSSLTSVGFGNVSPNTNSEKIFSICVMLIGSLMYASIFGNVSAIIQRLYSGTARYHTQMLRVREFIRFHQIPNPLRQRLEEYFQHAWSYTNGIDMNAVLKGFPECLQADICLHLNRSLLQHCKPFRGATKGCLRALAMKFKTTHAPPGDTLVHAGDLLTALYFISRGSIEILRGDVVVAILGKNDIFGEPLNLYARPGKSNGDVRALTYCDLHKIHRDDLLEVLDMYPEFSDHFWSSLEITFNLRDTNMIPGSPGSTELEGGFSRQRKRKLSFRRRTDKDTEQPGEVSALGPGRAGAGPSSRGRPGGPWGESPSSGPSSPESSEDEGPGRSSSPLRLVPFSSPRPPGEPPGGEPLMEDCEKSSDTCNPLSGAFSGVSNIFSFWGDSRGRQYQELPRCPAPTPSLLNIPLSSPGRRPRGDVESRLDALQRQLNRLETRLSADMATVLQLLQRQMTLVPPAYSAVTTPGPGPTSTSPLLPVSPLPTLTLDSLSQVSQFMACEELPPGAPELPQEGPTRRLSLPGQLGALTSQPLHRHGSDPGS
ASSAY PROCEDURE: hERG K+ Channel Block
Assay type: cell-based
TEST PARAMETERS: human
pIC50: −log10 of the molar value.
REPORTED ENDPOINT: pIC50

Prompt: Any idea what pIC50 was measured for O=C(NCC1CCN(CCNS(=O)(=O)C(F)(F)F)CC1)c1cc(Br)cc(C(F)(F)F)c1 ?
Completion: ≤ 5.08

Prompt: // query: COc1cc(OC)cc(C(=O)NCC2CCN(CC(=O)NC(C)(C)C(F)(F)F)CC2)c1
Completion: ≤ 4.78

Prompt: Follow-up entry: COc1cc(F)cc(C(=O)NCC2CCN(CCNS(=O)(=O)C(C)(C)C)CC2)c1
Completion: ≤ 4.77

Prompt: Note, next up: CC(C)(C)NC(=O)CN1CCC(CNC(=O)c2cc(F)cc(Cl)c2)CC1
Completion: ≤ 5.08

Prompt: Query COc1cc(F)cc(C(=O)NCC2CCN(CCNC(=O)C3(C(F)(F)F)CCC3)CC2)c1 next
Completion: ≤ 4.78

Prompt: Consider next the molecule Cc1cc(F)cc(C(=O)NCC2CCN(CC(=O)NC(C)(C)C)CC2)c1 in the same way.
Completion: ≤ 5.08

Prompt: Another molecule: COCC(C)(C)NC(=O)CN1CCC(CNC(=O)c2cc(F)cc(OC)c2)CC1
Completion: ≤ 4.77

Prompt: For Cc1cc(C)cc(C(=O)NCC2CCN(CC(=O)NC(C)(C)C)CC2)c1 then?
Completion: ≤ 5.08

Prompt: Now the same for COc1cc(F)cc(C(=O)NCC2CCN(CC(=O)N(C)C(C)(C)C)CC2)c1
Completion: ≤ 4.77

Prompt: // next record COc1cc(OC)cc(C(=O)NCC2CCN(CC(=O)NC(C)(C)C)CC2)c1
Completion: ≤ 5.08

---

TARGET OR SYSTEM: human α1G T-type channels (Homo sapiens, UniProt O43497)
Construct: expressed in transfected cells; host or cells: HEK 293
ASSAY PROCEDURE: T-type calcium channel block, whole cell patch clamp in HEK cells (α1G)
Type: cell-based
TEST PARAMETERS: HEK cells, patch clamp, mainly non-inactivated protocol; values above 10 μM shown as 10 μM, below 0.30 μM shown as 0.30 μM; read-out: T-type Calcium Channel Block α1G IC50
REPORTED ENDPOINT: IC50

Prompt: Which IC50 is listed for CN(CCN1CCC(CNC(=O)c2cc(F)cc(C(F)(F)F)c2)CC1)C(=O)NC1CCCCC1 [Compound 525] ?
Completion: 2360 nM

Prompt: Next: COc1cc(F)cc(C(=O)NCC2CCN(CC(=O)NCC(C)(C)F)CC2)c1 [Compound 557]
Completion: 3580 nM

Prompt: Another compound: CC(C)(C)NC(=O)N1CCC[C@H]1CN1CCC(CNC(=O)c2cc(F)cc(C(F)(F)F)c2)CC1 [Compound 410]
Completion: 1150 nM

Prompt: Would you kindly repeat that for CCCNC(=O)N(C)CCN1CCC(CNC(=O)c2cc(F)cc(C(F)(F)F)c2)CC1 [Compound 526] ?
Completion: > 10000 nM

---

TARGET OR SYSTEM: human α1H T-type channels (Homo sapiens)
Construct: expressed in transfected cells; host or cells: HEK 293
ASSAY PROCEDURE: T-type calcium channel block, whole cell patch clamp in HEK cells (α1H)
Format: cell-based
TEST PARAMETERS: HEK cells, patch clamp, mainly non-inactivated protocol; values above 10 μM shown as 10 μM; read-out: T-type Calcium Channel Block α1H IC50
Kindly state pIC50 for each of the entries shown.
By convention, pIC50 is the negative base-10 log of a molar concentration.

Prompt: Look at this molecule and give its reported pIC50. CC(C(=O)N1CCC[C@@H]1C(F)(F)F)N1CCC(CNC(=O)c2cc(F)cc(Cl)c2)CC1 (stereo partly shown)
Completion: 6.34

Prompt: Check CC(C(=O)NC(C)(C)C(F)(F)F)N1CCC(CNC(=O)c2cc(F)cc(Cl)c2)CC1 (stereo not shown) too.
Completion: 7.52

Prompt: Same question, CC1(NC(=O)CN2CCC(CNC(=O)c3cc(F)cc(Cl)c3)CC2)CCC1 this time
Completion: 7.10

Prompt: Next entry: CC(C)(C)C(=O)NCCN1CCC(CNC(=O)c2cc(C(F)(F)F)cc(C(F)(F)F)c2)CC1
Completion: 6.66

Prompt: Record: CS(=O)(=O)NC1(CN2CCC(CC(=O)Nc3cc(C(F)(F)F)cc(C(F)(F)F)c3)CC2)CCCC1
Completion: 6.30

Prompt: Okay, and CC(C)(C)OC(=O)NCCN1CCC(CNC(=O)c2cc(F)cc(F)c2)CC1 ?
Completion: 6.06

Prompt: Likewise for COc1cc(OC)cc(C(=O)NCC2CCN(CC(=O)NC(C)C)CC2)c1 ?
Completion: 5.66

Prompt: Also O=C(NCC1CCN(CC2(NS(=O)(=O)C3CC3)CCCC2)CC1)c1cc(C(F)(F)F)cc(C(F)(F)F)c1 ?
Completion: 6.27

Prompt: Request: O=C(CN1CCC(CNC(=O)c2cc(C(F)(F)F)cc(C(F)(F)F)c2)CC1)NC1CCCCC1
Completion: 7.22

Prompt: Next up: CC(C)(C)OC(=O)NCCN1CCC(CNC(=O)c2cccc(OC(F)(F)F)c2)CC1
Completion: 6.49

Prompt: Please answer likewise for CCCNC(=O)CN1CCC(CNC(=O)c2cc(OC)cc(OC)c2)CC1
Completion: 5.33

Prompt: Do the same for COc1cc(OC)cc(C(=O)NCC2CCN(CCNS(=O)(=O)C(C)(C)C)CC2)c1 please
Completion: 6.03

Prompt: // same read-out, input: CC(C)(C)ONC(=O)CN1CCC(CNC(=O)c2cc(C(F)(F)F)cc(C(F)(F)F)c2)CC1
Completion: 6.23

Prompt: Again, but for CC(C)(C(=O)NCCN1CCC(CNC(=O)c2cccc(Br)c2)CC1)C(F)(F)F
Completion: 7.22

Prompt: Same read-out for O=C(/C=C/c1cc(Cl)cc(Cl)c1)NCC1CCN(CCNC(=O)CCC(F)(F)F)CC1 ?
Completion: 5.23

Prompt: Try the molecule CC1(NC(=O)CN2CCC(CNC(=O)c3cccc(C(F)(F)F)c3)CC2)CCC1
Completion: 6.82

Prompt: Same again, this time with O=C(NCC1CCN(C(=O)CN2CCCC(C(F)(F)F)C2)CC1)c1cc(F)cc(C(F)(F)F)c1 (stereo not shown)
Completion: 5.15

Prompt: And what about the molecule CCCNC(=O)NC1(CN2CCC(CNC(=O)c3cc(C(F)(F)F)cc(C(F)(F)F)c3)CC2)CCCC1 ?
Completion: 5.73
